Molecular target: heteromeric α7β2-nAChRs on MS/DB cholinergic neurons (Rattus norvegicus, UniProt P12390+Q05941)
Construct: functional nAChRs naturally expressed on rat MS/DB cholinergic neurons; endogenous in cells; host or cells: acutely dissociated MS/DB neurons of 2-4 week-old Wistar rats
Sequence (Q05941 23-502): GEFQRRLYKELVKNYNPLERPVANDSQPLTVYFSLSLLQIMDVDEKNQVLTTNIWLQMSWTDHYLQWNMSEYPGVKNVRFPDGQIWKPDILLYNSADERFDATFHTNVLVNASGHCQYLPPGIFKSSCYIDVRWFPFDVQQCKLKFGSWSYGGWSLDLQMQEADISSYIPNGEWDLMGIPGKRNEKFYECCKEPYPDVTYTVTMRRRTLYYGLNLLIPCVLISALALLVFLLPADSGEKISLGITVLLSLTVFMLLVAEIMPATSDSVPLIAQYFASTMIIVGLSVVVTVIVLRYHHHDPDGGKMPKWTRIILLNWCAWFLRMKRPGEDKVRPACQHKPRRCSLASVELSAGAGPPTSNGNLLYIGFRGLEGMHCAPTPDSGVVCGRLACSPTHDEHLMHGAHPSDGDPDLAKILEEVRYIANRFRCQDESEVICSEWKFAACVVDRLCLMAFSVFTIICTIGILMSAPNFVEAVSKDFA
Sequence (P12390 25-500): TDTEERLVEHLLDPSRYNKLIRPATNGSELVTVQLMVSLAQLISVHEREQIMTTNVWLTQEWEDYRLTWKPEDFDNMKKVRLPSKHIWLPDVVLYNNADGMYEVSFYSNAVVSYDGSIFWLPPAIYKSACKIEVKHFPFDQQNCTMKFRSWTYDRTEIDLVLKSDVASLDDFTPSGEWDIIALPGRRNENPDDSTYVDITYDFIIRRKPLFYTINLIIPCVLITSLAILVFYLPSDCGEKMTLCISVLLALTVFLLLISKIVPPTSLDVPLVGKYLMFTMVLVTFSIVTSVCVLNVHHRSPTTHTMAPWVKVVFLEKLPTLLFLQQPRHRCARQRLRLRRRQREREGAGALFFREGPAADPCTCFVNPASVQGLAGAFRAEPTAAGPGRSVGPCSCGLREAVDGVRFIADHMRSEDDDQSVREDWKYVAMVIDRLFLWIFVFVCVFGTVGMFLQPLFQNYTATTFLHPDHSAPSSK
Assay type: cell-based
Conditions: 10 mM choline; MS/DB neurons; n=8; read-out: IC50, inhibition of choline-induced currents
Procedure: Briefly, each postnatal 2-4 week-old Wistar rat or mouse (wild-type C57/B16 or nAChR β2 knockout mice on a C57/B16 background kindly provided by Dr. Marina Picciotto, Yale University) was anesthetized using isoflurane, and the brain was rapidly removed. […] Under current-clamp configuration, membrane potentials were measured using a patch-clamp amplifier (200B; Axon Instruments, Foster City, Calif.). […]
Endpoint: IC50 (nM)

> print(dat)
                                   compound  measured.value
1  CO[C@H]1CC=C2CCN3CCC4=C(CC(=O)OC4)[C@]23C1 [DHβE, dihydro-β-erythroidine]             170
